Measured AUC(0-inf) accompanies every entry in the list below.
ASSAY METHOD TEXT: AUC (0 to infinity) in Wistar Han rat lung at 0.1 umol/kg, administered as dry powder inhalation by LC-MS/MS analysis
Type: ADME
Design: dose 0.1 umol/kg, route respiratory (INHALATION), time infinity
ASSAY CONDITIONS: inhaled or intranasal
Report the figure in µM·h without appending any unit label.

In the examples that follow, each entry is paired with its recorded AUC(0-inf).
C[C@H](NC(=O)C(C)(F)F)[C@H](Oc1ccc2c(cnn2-c2cccc(C(=O)NCc3cccnc3)c2)c1)c1ccc2c(c1)OCOC2	190
COc1cccc([C@@H](Oc2ccc3c(cnn3-c3ccc(F)cc3)c2)[C@H](C)NC(=O)C(F)(F)F)c1	18

// moving on: another record for AUC(0-inf)
Reported AUC(0-inf) for CCC(=O)O[C@]1(C(=O)SCF)[C@H](C)C[C@H]2[C@@H]3C[C@H](F)C4=CC(=O)C=C[C@]4(C)[C@@]3(F)[C@@H](O)C[C@@]21C [FLUTICASONE PROPIONATE] : what is it? 200

* * *

ASSAY METHOD TEXT: Solubility of the compound in phosphate buffer at pH 7.4 using solid sample at 23 degreeC
Assay type: physicochemical
Measured solubility thermodynamic accompanies every entry in the list below.
Report the figure in µM without appending any unit label.

C[C@H](NC(=O)C(C)(F)F)[C@H](Oc1ccc2c(cnn2-c2cccc(C(=O)N[C@@H]3CCOC3=O)c2)c1)c1ccccc1	0.12
C[C@H](NC(=O)C(C)(F)F)[C@H](Oc1ccc2c(cnn2-c2cccc(C(=O)NC3CCS(=O)(=O)C3)c2)c1)c1ccccc1 (stereo not given in full)	0.34

Reported solubility thermodynamic for C[C@H](NC(=O)C(C)(F)F)[C@H](Oc1ccc2c(cnn2-c2cccc(C(=O)NCc3cccnc3)c2)c1)c1ccc2c(c1)OCCO2 : what is it? 0.23

Reported solubility thermodynamic for C[C@H](NC(=O)C(C)(F)F)[C@H](Oc1ccc2c(cnn2-c2cccc(C(=O)N[C@H]3CCS(=O)(=O)C3)c2)c1)c1ccc2c(c1)OCCO2 : what is it? 0.68

* * *

System: Lung
ASSAY METHOD TEXT: Drug uptake in Wistar Han rat lung at 0.1 umol/kg, administered as dry powder inhalation after 24 hrs by LC-MS/MS analysis
Format: ADME, tissue-based
ASSAY CONDITIONS: in vivo, inhaled_or_intranasal
Threshold rule: Drug uptake greater than or equal to 30 %ID is Satisfied; below that, Not satisfied.

Below are worked cases with known answers.
C[C@H](NC(=O)C(C)(F)F)[C@H](Oc1ccc2c(cnn2-c2cccc(C(=O)N[C@@H]3CCS(=O)(=O)C3)c2)c1)c1ccc2c(c1)OCCO2	Satisfied
C[C@H](NC(=O)C(C)(F)F)[C@H](Oc1ccc2c(cnn2-c2cccc(C(=O)NCc3cccnc3)c2)c1)c1ccc2c(c1)OCOC2	Not satisfied
C[C@H](NC(=O)C(C)(F)F)[C@H](Oc1ccc2c(cnn2-c2cccc(C(=O)N[C@@H]3CCOC3)c2)c1)c1ccc2c(c1)OCCO2 [VELSECORAT]	Satisfied
C[C@H](NC(=O)C(C)(F)F)[C@H](Oc1ccc2c(cnn2-c2cccc(C(=O)NCc3cccnc3)c2)c1)c1ccc2c(c1)OCCO2	Not satisfied

Now look at this one.
Quick check: does CCC(=O)O[C@]1(C(=O)SCF)[C@H](C)C[C@H]2[C@@H]3C[C@H](F)C4=CC(=O)C=C[C@]4(C)[C@@]3(F)[C@@H](O)C[C@@]21C [FLUTICASONE PROPIONATE] have Drug uptake greater than or equal to 30 %ID? Not satisfied

* * *

ASSAY METHOD TEXT: Mean residence time in Wistar Han rat lung at 0.1 umol/kg, administered as dry powder inhalation by LC-MS/MS analysis
Assay type: ADME, tissue-based
ASSAY CONDITIONS: inhaled or intranasal
Threshold rule: MRT greater than or equal to 6 h is rule met; below that, rule not met.

C[C@H](NC(=O)C(C)(F)F)[C@H](Oc1ccc2c(cnn2-c2cccc(C(=O)NCc3cccnc3)c2)c1)c1ccc2c(c1)OCCO2	rule not met
CCC(=O)O[C@]1(C(=O)SCF)[C@H](C)C[C@H]2[C@@H]3C[C@H](F)C4=CC(=O)C=C[C@]4(C)[C@@]3(F)[C@@H](O)C[C@@]21C [FLUTICASONE PROPIONATE]	rule met
C[C@H](NC(=O)C(C)(F)F)[C@H](Oc1ccc2c(cnn2-c2cccc(C(=O)N[C@@H]3CCS(=O)(=O)C3)c2)c1)c1ccc2c(c1)OCCO2	rule met
C[C@H](NC(=O)C(C)(F)F)[C@H](Oc1ccc2c(cnn2-c2cccc(C(=O)NCc3cccnc3)c2)c1)c1ccc2c(c1)OCOC2	rule met
COc1cccc([C@@H](Oc2ccc3c(cnn3-c3ccc(F)cc3)c2)[C@H](C)NC(=O)C(F)(F)F)c1	rule not met

Quick check: does C[C@H](NC(=O)C(C)(F)F)[C@H](Oc1ccc2c(cnn2-c2cccc(C(=O)N[C@@H]3CCOC3)c2)c1)c1ccc2c(c1)OCCO2 have MRT greater than or equal to 6 h? rule met

* * *

ASSAY METHOD TEXT: Lipophilicity, log D of the compound by chromatography
Format: physicochemical
MEASURED QUANTITY: chromatographic logD
Please give the numeric answer without any surrounding text.

C[C@H](NC(=O)C(C)(F)F)[C@H](Oc1ccc2c(cnn2-c2cccc(C(=O)NCc3cccnc3)c2)c1)c1ccc2c(c1)OCCO2	3.7
C[C@H](NC(=O)C(C)(F)F)[C@H](Oc1ccc2c(cnn2-c2ccc(F)cc2)c1)c1ccc2c(c1)OCCO2	5.5
C[C@H](NC(=O)C(C)(F)F)[C@H](Oc1ccc2c(cnn2-c2cccc(C(=O)N[C@@H]3CCOC3=O)c2)c1)c1ccccc1	3.9
C[C@H](NC(=O)C(C)(F)F)[C@H](Oc1ccc2c(cnn2-c2cccc(C(=O)N[C@H]3CCOC3)c2)c1)c1ccc2c(c1)OCOC2	3.6
C[C@H](NC(=O)C(F)(F)F)[C@H](Oc1ccc2c(cnn2-c2ccc(F)cc2)c1)c1cccc(O)c1	5
C[C@H](NC(=O)C(C)(F)F)[C@H](Oc1ccc2c(cnn2-c2cccc(C(=O)N[C@@H]3CCOC3)c2)c1)c1ccc2c(c1)OCCO2	3.7

// moving on: another record for chromatographic logD
Reported chromatographic logD for C[C@H](NC(=O)C(C)(F)F)[C@H](Oc1ccc2c(cnn2-c2cccc(C(=O)N3CCC[C@@H]3C(N)=O)c2)c1)c1ccccc1 : what is it? 3.3

* * *

ASSAY METHOD TEXT: Mean residence time in Wistar Han rat lung at 0.1 umol/kg, administered via intratracheal instillation by LC-MS/MS analysis
Format: ADME, tissue-based
ASSAY CONDITIONS: inhaled or intranasal
MEASURED QUANTITY: MRT (h)
Report the figure in h without appending any unit label.

Reported MRT for C[C@H](NC(=O)C(C)(F)F)[C@H](Oc1ccc2c(cnn2-c2ccc(F)cc2)c1)c1ccc2c(c1)OCCO2 : what is it? 8.8

* * *

Tested on: Rattus norvegicus
ASSAY METHOD TEXT: Toxicity in inhaled CRL:CD Sprague Dawley rat model of sephadex induced lung edema assessed as induction of thymic involution administered once per day for 3 days
ASSAY CONDITIONS: in vivo, inhaled_or_intranasal, 72 h
Measured ED25 accompanies every entry in the list below.
Report the figure in mg/kg without appending any unit label.

In the examples that follow, each entry is paired with its recorded ED25.
C[C@H](NC(=O)C(C)(F)F)[C@H](Oc1ccc2c(cnn2-c2cccc(C(=O)NCc3cccnc3)c2)c1)c1ccc2c(c1)OCOC2	0.027
CCC(=O)O[C@]1(C(=O)SCF)[C@H](C)C[C@H]2[C@@H]3C[C@H](F)C4=CC(=O)C=C[C@]4(C)[C@@]3(F)[C@@H](O)C[C@@]21C [FLUTICASONE PROPIONATE]	0.0039
C[C@H](NC(=O)C(C)(F)F)[C@H](Oc1ccc2c(cnn2-c2cccc(C(=O)N[C@@H]3CCOC3)c2)c1)c1ccc2c(c1)OCCO2	0.04

Reported ED25 for C[C@H](NC(=O)C(C)(F)F)[C@H](Oc1ccc2c(cnn2-c2cccc(C(=O)NCc3cccnc3)c2)c1)c1ccc2c(c1)OCCO2 : what is it? 0.012

* * *

Measured bioavailability accompanies every entry in the list below.
ASSAY METHOD TEXT: Oral bioavailability in Wistar Han rat administered via gavage by LC-MS/MS analysis
Format: ADME, organism-based
ASSAY CONDITIONS: in vivo

In the examples that follow, each entry is paired with its recorded bioavailability.
C[C@H](NC(=O)C(C)(F)F)[C@H](Oc1ccc2c(cnn2-c2cccc(C(=O)N[C@@H]3CCOC3)c2)c1)c1ccc2c(c1)OCCO2 [VELSECORAT]	< 0.1%
C[C@H](NC(=O)C(C)(F)F)[C@H](Oc1ccc2c(cnn2-c2cccc(C(=O)NCc3cccnc3)c2)c1)c1ccc2c(c1)OCCO2	0.16%

// moving on: another record for bioavailability
Reported bioavailability for CCC(=O)O[C@]1(C(=O)SCF)[C@H](C)C[C@H]2[C@@H]3C[C@H](F)C4=CC(=O)C=C[C@]4(C)[C@@]3(F)[C@@H](O)C[C@@]21C [FLUTICASONE PROPIONATE] : what is it? < 0.1%
